- study.target: G9a (Homo sapiens)
- Sequence (Q96KQ7 1-1210): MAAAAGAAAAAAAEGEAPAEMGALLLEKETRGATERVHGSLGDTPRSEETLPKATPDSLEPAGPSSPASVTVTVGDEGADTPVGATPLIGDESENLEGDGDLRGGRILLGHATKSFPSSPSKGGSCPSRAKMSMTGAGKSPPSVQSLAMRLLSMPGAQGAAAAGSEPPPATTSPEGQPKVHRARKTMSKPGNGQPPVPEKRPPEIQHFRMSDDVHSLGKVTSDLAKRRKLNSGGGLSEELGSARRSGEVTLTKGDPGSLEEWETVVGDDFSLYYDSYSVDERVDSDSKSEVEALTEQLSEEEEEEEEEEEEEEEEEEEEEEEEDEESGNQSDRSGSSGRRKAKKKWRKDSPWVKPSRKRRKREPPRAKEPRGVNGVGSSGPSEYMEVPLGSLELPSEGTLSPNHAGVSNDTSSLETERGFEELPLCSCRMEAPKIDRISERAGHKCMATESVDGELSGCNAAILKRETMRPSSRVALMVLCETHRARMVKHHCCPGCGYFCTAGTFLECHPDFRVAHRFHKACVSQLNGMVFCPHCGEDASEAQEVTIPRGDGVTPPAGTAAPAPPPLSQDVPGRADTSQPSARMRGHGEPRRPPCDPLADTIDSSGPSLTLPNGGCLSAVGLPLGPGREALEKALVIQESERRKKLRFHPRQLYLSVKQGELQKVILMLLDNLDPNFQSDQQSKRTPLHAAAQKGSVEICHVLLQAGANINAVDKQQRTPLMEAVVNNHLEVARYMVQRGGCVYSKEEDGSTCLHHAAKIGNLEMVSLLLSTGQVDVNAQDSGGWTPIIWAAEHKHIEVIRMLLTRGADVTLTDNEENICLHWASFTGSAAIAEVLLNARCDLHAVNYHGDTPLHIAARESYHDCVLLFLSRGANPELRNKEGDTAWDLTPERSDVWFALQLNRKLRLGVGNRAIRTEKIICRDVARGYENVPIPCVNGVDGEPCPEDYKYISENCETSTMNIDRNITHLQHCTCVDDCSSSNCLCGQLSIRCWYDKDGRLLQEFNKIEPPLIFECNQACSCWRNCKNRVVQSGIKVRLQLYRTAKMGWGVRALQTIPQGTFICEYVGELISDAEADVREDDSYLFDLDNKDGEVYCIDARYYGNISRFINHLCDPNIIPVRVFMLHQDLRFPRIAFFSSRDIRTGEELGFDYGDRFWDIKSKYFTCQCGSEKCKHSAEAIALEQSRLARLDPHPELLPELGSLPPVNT
- method: G9a AlphaLISA enzymatic activity assay
- Type: biochemical
- measurement.parameters: 0.15 nM G9a, 15 uM S-adenosyl-methionine, 100 nM biotinylated histone 3 peptide (1-21), 1 hour at room temperature; read-out: G9a in (uM) (IC50, concentration that produced 50% inhibition)
Where a name gives a salt, the structure may show the parent alone.
Entries and their IC50 values follow.
Express the result in µM but write the number alone.

These solved cases illustrate the format of a correct answer.
>  <compound>
COc1cc2c3c(c(NC4COC4)nc2cc1OCCCN1CCCC1)CCC3 [Example 44, formate]

>  <IC50, µM>
5.8

$$$$
>  <compound>
COc1cc2c3c(c(-c4coc(C)c4)nc2cc1OCCCN1CCCC1)CCC3 [Example 90, formate]

>  <IC50, µM>
0.6

$$$$
>  <compound>
CC(C)Nc1nc2cc(OCCCN3CCCC3)c(O)cc2c2c1CCC2 [Example 84, trifluoroacetate]

>  <IC50, µM>
1.6

$$$$

Please examine the following record next.
Task: Entry CNc1nc2cc(OCCCN3CCCC3)c(OC)cc2c2c1CC(O)CC2 (stereo not shown) [Example 20] has what IC50?
Output: 0.14
